molecular target: Integrin alpha-V/beta-6 (Homo sapiens, UniProt P06756+P18564); experiment: Binding affinity to human integrin alphaVbeta6 incubated for 1 hr by ELISA based solid phase integrin binding assay
Exercise: for every item that follows, state its recorded IC50.
Give bare numbers, in nM.

Some solved entries appear below for comparison.
CC(C)[C@@H]1NC(=O)[C@@H](Cc2c[nH]c3c(-c4ccc5ccc6cccc7ccc4c5c67)cccc23)NC(=O)[C@H](CC(=O)O)NC(=O)CNC(=O)[C@H](CCCNC(=N)N)NC1=O | 299
CC(C)[C@@H]1NC(=O)[C@@H](Cc2c[nH]c3c(-c4cccc(N)c4)cccc23)NC(=O)[C@H](CC(=O)O)NC(=O)CNC(=O)[C@H](CCCNC(=N)N)NC1=O | 36
CC(C)[C@@H]1NC(=O)[C@@H](Cc2c[nH]c3c(-c4c5ccccc5cc5ccccc45)cccc23)NC(=O)[C@H](CC(=O)O)NC(=O)CNC(=O)[C@H](CCCNC(=N)N)NC1=O | 32
COc1ccc(-c2cccc3c(C[C@H]4NC(=O)[C@H](CC(=O)O)NC(=O)CNC(=O)[C@H](CCCNC(=N)N)NC(=O)[C@H](C(C)C)NC4=O)c[nH]c23)cc1 | 50

We next turn to a different molecule, shown below.
Lab book: IC50 of `CC(C)[C@@H]1NC(=O)[C@@H](Cc2c[nH]c3c(-c4ccc(C(=O)O)cc4)cccc23)NC(=O)[C@H](CC(=O)O)NC(=O)CNC(=O)[C@H](CCCNC(=N)N)NC1=O` noted as 54

---

Exercise: for every item that follows, state its recorded IC50.
biological target: Integrin alpha-V/beta-8 (Homo sapiens, UniProt P06756+P26012); assay: Binding affinity to human integrin alphaVbeta8 incubated for 1 hr by ELISA based solid phase integrin binding assay
Sequence (P06756 31-889 limits assumed): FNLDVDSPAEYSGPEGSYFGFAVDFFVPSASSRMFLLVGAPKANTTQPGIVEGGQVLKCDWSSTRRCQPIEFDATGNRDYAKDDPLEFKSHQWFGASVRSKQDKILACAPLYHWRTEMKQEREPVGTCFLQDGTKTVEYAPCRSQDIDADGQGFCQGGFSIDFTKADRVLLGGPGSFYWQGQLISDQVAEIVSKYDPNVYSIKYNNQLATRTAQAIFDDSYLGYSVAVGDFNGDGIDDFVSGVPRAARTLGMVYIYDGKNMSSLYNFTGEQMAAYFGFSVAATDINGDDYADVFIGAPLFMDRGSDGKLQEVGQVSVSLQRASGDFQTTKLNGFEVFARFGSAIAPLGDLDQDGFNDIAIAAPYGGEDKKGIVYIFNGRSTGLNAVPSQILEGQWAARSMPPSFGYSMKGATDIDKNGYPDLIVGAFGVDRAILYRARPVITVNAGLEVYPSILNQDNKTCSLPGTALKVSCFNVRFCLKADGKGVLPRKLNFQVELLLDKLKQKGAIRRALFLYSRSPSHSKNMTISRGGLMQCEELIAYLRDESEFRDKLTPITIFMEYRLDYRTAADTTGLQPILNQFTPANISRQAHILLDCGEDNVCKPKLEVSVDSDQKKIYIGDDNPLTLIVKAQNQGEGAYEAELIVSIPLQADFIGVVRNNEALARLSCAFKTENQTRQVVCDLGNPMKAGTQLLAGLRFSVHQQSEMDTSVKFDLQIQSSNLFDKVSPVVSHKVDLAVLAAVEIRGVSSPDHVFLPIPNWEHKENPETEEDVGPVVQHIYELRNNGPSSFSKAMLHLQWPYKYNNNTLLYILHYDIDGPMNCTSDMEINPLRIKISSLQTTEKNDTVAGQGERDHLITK
Sequence (P06756 891-1048 limits assumed): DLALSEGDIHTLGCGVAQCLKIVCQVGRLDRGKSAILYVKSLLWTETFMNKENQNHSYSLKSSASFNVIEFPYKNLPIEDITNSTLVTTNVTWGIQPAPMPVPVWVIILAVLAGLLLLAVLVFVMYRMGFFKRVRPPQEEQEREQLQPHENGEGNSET
Sequence (P26012 43-769 limits assumed): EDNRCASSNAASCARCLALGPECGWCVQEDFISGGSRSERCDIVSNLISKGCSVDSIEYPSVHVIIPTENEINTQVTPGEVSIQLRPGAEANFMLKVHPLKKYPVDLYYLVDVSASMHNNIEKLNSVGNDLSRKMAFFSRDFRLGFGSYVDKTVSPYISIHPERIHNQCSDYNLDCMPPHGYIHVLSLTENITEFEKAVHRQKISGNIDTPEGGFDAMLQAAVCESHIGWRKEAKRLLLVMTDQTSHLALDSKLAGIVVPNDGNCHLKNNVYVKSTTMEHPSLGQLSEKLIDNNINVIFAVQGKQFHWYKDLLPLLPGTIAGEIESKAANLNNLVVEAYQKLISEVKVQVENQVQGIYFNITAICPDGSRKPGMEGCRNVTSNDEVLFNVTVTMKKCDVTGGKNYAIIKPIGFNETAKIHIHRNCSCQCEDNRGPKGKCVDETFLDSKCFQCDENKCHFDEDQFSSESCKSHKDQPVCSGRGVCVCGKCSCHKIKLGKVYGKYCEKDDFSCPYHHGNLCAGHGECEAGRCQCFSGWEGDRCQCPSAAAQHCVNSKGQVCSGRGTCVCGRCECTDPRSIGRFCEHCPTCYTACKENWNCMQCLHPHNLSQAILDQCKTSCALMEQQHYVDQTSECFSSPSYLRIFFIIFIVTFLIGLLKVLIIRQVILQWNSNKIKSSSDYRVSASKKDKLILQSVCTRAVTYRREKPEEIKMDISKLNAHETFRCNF
Give bare numbers, in nM.

Some solved entries appear below for comparison.
CC(C)[C@@H]1NC(=O)[C@@H](Cc2c[nH]c3c(-c4ccc(C(=O)O)cc4)cccc23)NC(=O)[C@H](CC(=O)O)NC(=O)CNC(=O)[C@H](CCCNC(=N)N)NC1=O | 39.2
CC(C)[C@@H]1NC(=O)[C@@H](Cc2c[nH]c3c(-c4cccc(N)c4)cccc23)NC(=O)[C@H](CC(=O)O)NC(=O)CNC(=O)[C@H](CCCNC(=N)N)NC1=O | 220
COc1ccc(-c2cccc3c(C[C@H]4NC(=O)[C@H](CC(=O)O)NC(=O)CNC(=O)[C@H](CCCNC(=N)N)NC(=O)[C@H](C(C)C)NC4=O)c[nH]c23)cc1 | 76.5

State the recorded IC50 for every item in the following list.
1. CC(C)[C@@H]1NC(=O)[C@@H](Cc2c[nH]c3c(-c4c5ccccc5cc5ccccc45)cccc23)NC(=O)[C@H](CC(=O)O)NC(=O)CNC(=O)[C@H](CCCNC(=N)N)NC1=O
2. CC(C)[C@@H]1NC(=O)[C@@H](Cc2c[nH]c3c(-c4ccc5ccc6cccc7ccc4c5c67)cccc23)NC(=O)[C@H](CC(=O)O)NC(=O)CNC(=O)[C@H](CCCNC(=N)N)NC1=O

Reply:
1: 193; 2: 1010

---

Exercise: for every item that follows, state its recorded Ratio IC50.
test: Selectivity index, ratio of IC50 for binding affinity to human integrin alpha5beta1 to IC50 for binding affinity to human integrin alphaVbeta3
Answers are plain numbers.

CC(C)[C@H]1NC(=O)[C@H](Cc2c[nH]c3c(Br)cccc23)NC(=O)[C@H](CC(=O)O)NC(=O)CNC(=O)[C@H](CCCNC(=N)N)NC1=O | 891
CC(C)[C@@H]1NC(=O)[C@@H](Cc2c[nH]c3c(-c4c5ccccc5cc5ccccc45)cccc23)NC(=O)[C@H](CC(=O)O)NC(=O)CNC(=O)[C@H](CCCNC(=N)N)NC1=O | 798
CC(C)[C@@H]1NC(=O)[C@@H](Cc2c[nH]c3c(Br)cccc23)NC(=O)[C@H](CC(=O)O)NC(=O)CNC(=O)[C@H](CCCNC(=N)N)NC1=O | 120
CC(C)[C@@H]1NC(=O)[C@@H](Cc2c[nH]c3c(-c4ccc5ccc6cccc7ccc4c5c67)cccc23)NC(=O)[C@H](CC(=O)O)NC(=O)CNC(=O)[C@H](CCCNC(=N)N)NC1=O | 407
CC(C)[C@@H]1NC(=O)[C@@H](Cc2c[nH]c3c(-c4ccc(C(=O)O)cc4)cccc23)NC(=O)[C@H](CC(=O)O)NC(=O)CNC(=O)[C@H](CCCNC(=N)N)NC1=O | 42

State the recorded Ratio IC50 for every item in the following list.
1. CC(C)[C@H]1C(=O)N[C@@H](CCCNC(=N)N)C(=O)NCC(=O)N[C@@H](CC(=O)O)C(=O)N[C@H](Cc2c[nH]c3c(Br)cccc23)C(=O)N1C
2. CC(C)[C@@H]1NC(=O)[C@@H](Cc2c[nH]c3c(I)cccc23)NC(=O)[C@H](CC(=O)O)NC(=O)CNC(=O)[C@H](CCCNC(=N)N)NC1=O
3. CC(C)[C@@H]1NC(=O)[C@@H](Cc2c[nH]c3cc(Cl)ccc23)NC(=O)[C@H](CC(=O)O)NC(=O)CNC(=O)[C@H](CCCNC(=N)N)NC1=O

Reply:
1: 7.4; 2: 114; 3: 163

---

target: Integrin alpha-V/beta-3 (Homo sapiens, UniProt P05106+P06756); assay: Binding affinity to human integrin alphaVbeta3 incubated for 1 hr by ELISA based solid phase integrin binding assay
Sequence (P05106 27-788 limits assumed): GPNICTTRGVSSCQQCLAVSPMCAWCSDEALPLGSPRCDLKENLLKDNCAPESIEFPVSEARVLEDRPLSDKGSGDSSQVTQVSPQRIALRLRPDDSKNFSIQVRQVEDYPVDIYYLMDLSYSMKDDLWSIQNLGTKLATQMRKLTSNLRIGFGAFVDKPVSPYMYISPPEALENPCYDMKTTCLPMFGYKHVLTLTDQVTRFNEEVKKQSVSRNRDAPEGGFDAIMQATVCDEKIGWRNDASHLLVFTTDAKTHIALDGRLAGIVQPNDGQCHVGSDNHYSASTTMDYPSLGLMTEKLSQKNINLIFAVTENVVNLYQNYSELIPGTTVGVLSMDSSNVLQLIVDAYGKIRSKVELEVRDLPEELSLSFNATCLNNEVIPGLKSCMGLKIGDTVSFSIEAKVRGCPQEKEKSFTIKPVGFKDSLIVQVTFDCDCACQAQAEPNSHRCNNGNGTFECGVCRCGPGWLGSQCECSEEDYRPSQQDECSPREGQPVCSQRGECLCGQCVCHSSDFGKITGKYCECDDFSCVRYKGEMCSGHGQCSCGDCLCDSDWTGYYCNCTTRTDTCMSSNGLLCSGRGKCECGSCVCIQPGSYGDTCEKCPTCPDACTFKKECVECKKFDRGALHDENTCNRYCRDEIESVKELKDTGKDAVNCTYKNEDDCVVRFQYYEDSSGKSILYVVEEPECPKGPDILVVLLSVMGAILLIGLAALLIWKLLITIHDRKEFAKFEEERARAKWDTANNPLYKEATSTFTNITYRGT
Sequence (P06756 31-889 limits assumed): as the sequence (P06756 31-889 limits assumed) above
Sequence (P06756 891-1048 limits assumed): as the sequence (P06756 891-1048 limits assumed) above
Test Readout: IC50 (nM)
Answers are plain numbers, in nM.

Some solved entries appear below for comparison.
CC(C)[C@@H]1NC(=O)[C@@H](Cc2c[nH]c3c(I)cccc23)NC(=O)[C@H](CC(=O)O)NC(=O)CNC(=O)[C@H](CCCNC(=N)N)NC1=O | 0.43
CC(C)[C@@H]1NC(=O)[C@@H](Cc2c[nH]c3cc(Cl)ccc23)NC(=O)[C@H](CC(=O)O)NC(=O)CNC(=O)[C@H](CCCNC(=N)N)NC1=O | 0.24
CC(C)[C@@H]1NC(=O)[C@@H](Cc2c[nH]c3cc(Br)ccc23)NC(=O)[C@H](CC(=O)O)NC(=O)CNC(=O)[C@H](CCCNC(=N)N)NC1=O | 0.53
CC(C)[C@@H]1NC(=O)[C@@H](Cc2c[nH]c3c(-c4cccc(N)c4)cccc23)NC(=O)[C@H](CC(=O)O)NC(=O)CNC(=O)[C@H](CCCNC(=N)N)NC1=O | 0.52
CC(C)[C@@H]1NC(=O)[C@@H](Cc2c[nH]c3c(Cl)cccc23)NC(=O)[C@H](CC(=O)O)NC(=O)CNC(=O)[C@H](CCCNC(=N)N)NC1=O | 0.34

We next turn to a different molecule, shown below.
Lab book: IC50 of `CC(C)[C@@H]1NC(=O)[C@@H](Cc2c[nH]c3c(-c4ccc(C(=O)O)cc4)cccc23)NC(=O)[C@H](CC(=O)O)NC(=O)CNC(=O)[C@H](CCCNC(=N)N)NC1=O` noted as 0.52

---

molecular target: Integrin alpha-5/beta-1 (Homo sapiens, UniProt P05556+P08648); test: Binding affinity to human integrin alpha5beta1 incubated for 1 hr by ELISA based solid phase integrin binding assay
Sequence (P05556 21-798 limits assumed): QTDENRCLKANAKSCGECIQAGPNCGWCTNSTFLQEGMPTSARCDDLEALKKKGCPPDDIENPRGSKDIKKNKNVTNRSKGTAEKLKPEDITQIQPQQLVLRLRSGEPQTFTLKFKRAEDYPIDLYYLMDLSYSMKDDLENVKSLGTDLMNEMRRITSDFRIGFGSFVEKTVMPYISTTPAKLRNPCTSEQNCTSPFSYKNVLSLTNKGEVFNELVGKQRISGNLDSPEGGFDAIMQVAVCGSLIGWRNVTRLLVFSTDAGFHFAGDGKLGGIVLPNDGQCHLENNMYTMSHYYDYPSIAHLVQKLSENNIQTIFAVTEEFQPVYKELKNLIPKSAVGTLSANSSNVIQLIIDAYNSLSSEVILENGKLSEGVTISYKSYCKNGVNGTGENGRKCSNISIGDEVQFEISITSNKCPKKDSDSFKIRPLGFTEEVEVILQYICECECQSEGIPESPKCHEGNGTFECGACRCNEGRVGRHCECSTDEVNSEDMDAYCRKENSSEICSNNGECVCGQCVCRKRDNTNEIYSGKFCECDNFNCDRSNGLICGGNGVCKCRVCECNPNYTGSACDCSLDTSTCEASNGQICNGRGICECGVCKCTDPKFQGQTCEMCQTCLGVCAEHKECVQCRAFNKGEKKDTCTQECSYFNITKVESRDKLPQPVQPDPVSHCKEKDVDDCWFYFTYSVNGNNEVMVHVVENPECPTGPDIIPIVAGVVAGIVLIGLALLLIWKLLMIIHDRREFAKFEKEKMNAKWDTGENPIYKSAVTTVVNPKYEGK
Sequence (P08648 42-894 limits assumed): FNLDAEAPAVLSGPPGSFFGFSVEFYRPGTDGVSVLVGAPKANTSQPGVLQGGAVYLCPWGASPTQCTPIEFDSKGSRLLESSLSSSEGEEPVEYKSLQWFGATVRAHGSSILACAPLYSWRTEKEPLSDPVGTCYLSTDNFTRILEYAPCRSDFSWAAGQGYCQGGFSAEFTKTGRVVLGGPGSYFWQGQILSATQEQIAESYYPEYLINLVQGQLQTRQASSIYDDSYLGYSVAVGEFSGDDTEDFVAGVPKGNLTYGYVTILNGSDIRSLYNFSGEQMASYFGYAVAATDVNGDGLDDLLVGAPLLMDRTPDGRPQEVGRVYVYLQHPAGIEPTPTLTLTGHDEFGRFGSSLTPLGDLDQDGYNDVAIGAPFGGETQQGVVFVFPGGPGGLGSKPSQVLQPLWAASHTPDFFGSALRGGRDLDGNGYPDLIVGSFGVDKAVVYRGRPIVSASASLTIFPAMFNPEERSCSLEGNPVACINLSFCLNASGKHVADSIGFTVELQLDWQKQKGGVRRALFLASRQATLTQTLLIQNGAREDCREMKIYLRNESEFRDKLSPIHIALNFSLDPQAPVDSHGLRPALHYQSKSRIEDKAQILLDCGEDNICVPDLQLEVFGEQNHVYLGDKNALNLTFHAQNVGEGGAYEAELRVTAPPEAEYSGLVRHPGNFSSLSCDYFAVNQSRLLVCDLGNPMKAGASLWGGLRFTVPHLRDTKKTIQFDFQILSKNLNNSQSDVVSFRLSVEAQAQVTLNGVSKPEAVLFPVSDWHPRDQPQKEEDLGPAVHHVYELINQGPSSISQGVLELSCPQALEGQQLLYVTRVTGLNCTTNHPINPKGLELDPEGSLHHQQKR
Sequence (P08648 895-1049 limits assumed): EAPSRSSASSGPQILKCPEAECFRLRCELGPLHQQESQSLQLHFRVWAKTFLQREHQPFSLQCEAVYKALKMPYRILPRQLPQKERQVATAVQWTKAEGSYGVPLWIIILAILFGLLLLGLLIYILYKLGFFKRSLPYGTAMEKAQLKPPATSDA
Test Readout: IC50
Just the number plus its unit, please.

State the recorded IC50 for every item in the following list.
1. CC(C)[C@@H]1NC(=O)[C@@H](Cc2c[nH]c3cc(Br)ccc23)NC(=O)[C@H](CC(=O)O)NC(=O)CNC(=O)[C@H](CCCNC(=N)N)NC1=O
2. CC(C)[C@@H]1NC(=O)[C@@H](Cc2c[nH]c3c(I)cccc23)NC(=O)[C@H](CC(=O)O)NC(=O)CNC(=O)[C@H](CCCNC(=N)N)NC1=O

Reply:
43.3 nM
49.2 nM

---

assay: Selectivity index, ratio of IC50 for binding affinity to human integrin alpha5beta1 to IC50 for binding affinity to human integrin alphaVbeta3
Give fulfilled when the value for Ratio IC50 is at least 80. Give not fulfilled when it is less.

Ask: Decide: is the reported value of Ratio IC50 for `CC(C)[C@@H]1NC(=O)[C@@H](Cc2c[nH]c3c(Cl)cccc23)NC(=O)[C@H](CC(=O)O)NC(=O)CNC(=O)[C@H](CCCNC(=N)N)NC1=O` equal to or greater than 80?
Reply: fulfilled

Ask: Decide: is the reported value of Ratio IC50 for `COc1ccc(-c2cccc3c(C[C@H]4NC(=O)[C@H](CC(=O)O)NC(=O)CNC(=O)[C@H](CCCNC(=N)N)NC(=O)[C@H](C(C)C)NC4=O)c[nH]c23)cc1` equal to or greater than 80?
Reply: fulfilled

Ask: Decide: is the reported value of Ratio IC50 for `CC(C)[C@@H]1NC(=O)[C@@H](Cc2c[nH]c3c(-c4cccc(N)c4)cccc23)NC(=O)[C@H](CC(=O)O)NC(=O)CNC(=O)[C@H](CCCNC(=N)N)NC1=O` equal to or greater than 80?
Reply: fulfilled

Ask: Decide: is the reported value of Ratio IC50 for `CC(C)[C@@H]1NC(=O)[C@@H](Cc2c[nH]c3c(F)cccc23)NC(=O)[C@H](CC(=O)O)NC(=O)CNC(=O)[C@H](CCCNC(=N)N)NC1=O` equal to or greater than 80?
Reply: fulfilled

Ask: Decide: is the reported value of Ratio IC50 for `CC(C)[C@@H]1NC(=O)[C@@H](Cc2c[nH]c3ccccc23)NC(=O)[C@H](CC(=O)O)NC(=O)CNC(=O)[C@H](CCCNC(=N)N)NC1=O` equal to or greater than 80?
Reply: not fulfilled
